- system under test: PI3Kα (p110α/p85α) (Homo sapiens, UniProt P42336)
- Sequence (P42336 whole entry): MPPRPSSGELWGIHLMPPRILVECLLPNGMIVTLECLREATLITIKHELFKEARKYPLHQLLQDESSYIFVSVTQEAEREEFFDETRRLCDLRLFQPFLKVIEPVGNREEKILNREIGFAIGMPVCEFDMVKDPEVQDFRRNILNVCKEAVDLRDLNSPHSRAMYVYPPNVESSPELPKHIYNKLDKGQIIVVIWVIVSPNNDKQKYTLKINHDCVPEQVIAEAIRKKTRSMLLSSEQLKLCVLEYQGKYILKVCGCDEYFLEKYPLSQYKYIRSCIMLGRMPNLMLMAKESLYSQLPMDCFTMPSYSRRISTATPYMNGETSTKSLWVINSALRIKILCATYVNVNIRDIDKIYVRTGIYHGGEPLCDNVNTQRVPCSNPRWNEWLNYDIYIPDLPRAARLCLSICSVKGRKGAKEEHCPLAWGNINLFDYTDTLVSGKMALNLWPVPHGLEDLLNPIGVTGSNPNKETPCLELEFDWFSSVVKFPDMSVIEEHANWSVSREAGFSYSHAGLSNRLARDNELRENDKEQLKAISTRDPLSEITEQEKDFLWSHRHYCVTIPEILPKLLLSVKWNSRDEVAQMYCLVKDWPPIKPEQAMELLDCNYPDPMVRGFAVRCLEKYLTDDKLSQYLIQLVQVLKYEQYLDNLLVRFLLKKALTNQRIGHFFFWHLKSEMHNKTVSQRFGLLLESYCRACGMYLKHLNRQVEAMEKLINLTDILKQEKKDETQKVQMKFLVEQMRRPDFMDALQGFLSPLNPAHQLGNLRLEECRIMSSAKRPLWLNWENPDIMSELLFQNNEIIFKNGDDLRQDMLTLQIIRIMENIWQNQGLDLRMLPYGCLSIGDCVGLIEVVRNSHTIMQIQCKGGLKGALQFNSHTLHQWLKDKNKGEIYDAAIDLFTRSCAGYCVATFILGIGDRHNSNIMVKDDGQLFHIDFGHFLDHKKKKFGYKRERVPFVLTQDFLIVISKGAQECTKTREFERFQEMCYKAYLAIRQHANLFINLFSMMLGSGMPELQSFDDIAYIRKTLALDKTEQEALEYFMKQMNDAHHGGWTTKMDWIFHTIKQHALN
- Sequence (P27986 whole entry partner): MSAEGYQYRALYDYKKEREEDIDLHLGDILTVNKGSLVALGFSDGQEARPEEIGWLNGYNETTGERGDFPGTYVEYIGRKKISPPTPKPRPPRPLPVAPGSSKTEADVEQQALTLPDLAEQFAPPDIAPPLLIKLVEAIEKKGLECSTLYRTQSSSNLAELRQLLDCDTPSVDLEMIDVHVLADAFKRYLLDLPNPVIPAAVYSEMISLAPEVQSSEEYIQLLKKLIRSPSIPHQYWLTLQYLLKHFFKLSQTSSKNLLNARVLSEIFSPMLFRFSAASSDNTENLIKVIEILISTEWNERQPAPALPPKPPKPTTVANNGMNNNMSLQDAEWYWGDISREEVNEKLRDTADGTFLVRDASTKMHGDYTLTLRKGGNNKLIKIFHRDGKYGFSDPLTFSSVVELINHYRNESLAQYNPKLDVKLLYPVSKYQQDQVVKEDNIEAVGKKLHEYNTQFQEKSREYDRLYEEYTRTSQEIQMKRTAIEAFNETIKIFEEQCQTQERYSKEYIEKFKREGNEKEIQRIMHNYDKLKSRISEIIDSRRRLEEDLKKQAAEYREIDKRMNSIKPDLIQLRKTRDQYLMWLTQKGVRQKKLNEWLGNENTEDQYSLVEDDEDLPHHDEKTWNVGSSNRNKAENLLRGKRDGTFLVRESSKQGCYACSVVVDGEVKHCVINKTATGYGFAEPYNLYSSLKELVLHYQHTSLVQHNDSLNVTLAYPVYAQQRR
- protocol text: PI3Kα enzyme assay
recorded metric: IC50 (nM)

compound	unit tag	IC50
COc1cccc(C2C(C(=O)Nc3ccc(C(C)=O)cc3)=C(C)Nc3nc(SCCC4OCCO4)nn32)c1 (stereo not drawn)	nM	952
COc1cccc(C2C(C(=O)Nc3cccnc3)=C(C)Nc3nc(SCCC4OCCO4)nn32)c1 (stereo not drawn)	nM	793
COC(=O)CCSc1nc2n(n1)C(c1cccc(OC)c1)C(C(=O)Nc1ccc(OC)cc1)=C(C)N2 (stereo not drawn)	nM	1050
